Data credit: PubChem BioAssay AID2060886

# Test system: 653999-131-R-J2-PDC complex spheroids, growth inhibition;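 also: spheroids exposed to the agents for seven days before the readout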
# TEST SUMMARY: Anticancer human tumor 653999-131-R-J2-PDC patient-derived lung adenocarcinoma cell line growth inhibition [RAS]
# REPORTED CONDITIONS: curve of first compound; second compound 0.03 µM
VALUE TYPE: pIC50
The scale used: pIC50 is minus the common logarithm of the concentration in molar units.

Specify reported pIC50 for the molecule shown: C=CC(=O)Nc1cc(Nc2nccc(-c3cn(C)c4ccccc34)n2)c(OC)cc1N(C)CCN(C)C + CCn1c(-c2cccnc2C(C)OC)c2c3cc(ccc31)N1CCOC(CC(NC(=O)C(C(C)C)N(C)C(=O)C3(F)CCN(C(=O)C#CC(C)(C)N(C)C)CC3)C(=O)N3CCCC(N3)C(=O)OCC(C)(C)C2)C1
6.35
